target: Recombinant human his-tagged IGF 1R extracellular domain protein (human) (UniProt P08069); experiment: SPR, captured IgG, IGF-1R ECD-his analyte, dissociation pH 6
Parameter: koff. Scope: all listed entries.
Output spec: scalar in s⁻¹, unitless text.

Worked examples follow.
VRDN-02528 (antibody, V domains shown) VH: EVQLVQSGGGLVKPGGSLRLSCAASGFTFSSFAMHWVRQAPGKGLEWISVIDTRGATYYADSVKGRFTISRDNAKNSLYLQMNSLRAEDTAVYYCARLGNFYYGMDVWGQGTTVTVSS VL: EIVLTQSPGTLSVSPGERATLSCHASQSIGSSLHWYQQKPGQAPRLLIKYASQSLSGIPDRFSGSGSGTDFTLTISRLEPEDFAVYYCHQSSRLPHTFGQGTKVEIK | 1e-06
VRDN-02517 (antibody, V domains shown) VH: EVQLVQSGGGLVKPGGSLRLSCAASGFTFSSFAMHWVRQAPGKGLEWISVIDTRGATYYADSVKGRFTISRDNAKNSLYLQMNSLRAEDTAVYYCAHLGNFYYGMDVWGQGTTVTVSS VL: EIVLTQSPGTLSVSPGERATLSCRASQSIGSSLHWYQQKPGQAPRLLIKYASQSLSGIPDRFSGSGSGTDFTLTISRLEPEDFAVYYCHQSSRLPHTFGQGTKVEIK | 0.000265

Alright, here's another binder for you.
Give its koff value. Item: VRDN-02505 (antibody, V domains shown) VH: EVQLVQSGGGLVKPGGSLRLSCAASGFTFHSFAMHWVRQAPGKGLEWISVIDTRGATYYADSVKGRFTISRDNAKNSLYLQMNSLRAEDTAVYYCARLGNFYYGMDVWGQGTTVTVSS VL: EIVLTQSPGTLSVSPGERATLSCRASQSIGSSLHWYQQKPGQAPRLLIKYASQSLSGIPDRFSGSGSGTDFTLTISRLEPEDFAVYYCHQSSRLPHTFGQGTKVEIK
1e-06

The reported numbers originate from patent US20240343814A1.
